# assayMethodText: Rate of tetrazole inhibitor release from timing group compounds in micellar solution (HPLC of free inhibitor and residual timing group compound)
# Assay type: physicochemical
# conditionContext: inhibitor release, pH 13.5, (+10%)
Where Half-Life at pH 13.5 equals or exceeds 20 sec, the correct label is MET; where it does not, the label is NOT MET.

Worked examples, 3 compounds total:
compound	assignedLabel
CCCCCCCOc1ccc(-c2nnn(C3c4ccc(O)cc4CCC3(C)C)n2)cc1 (stereo not drawn)	MET
CCCCCCCOc1ccc(-c2nnn(C3CCCc4cc(O)ccc43)n2)cc1 (stereo not drawn)	NOT MET
CCCCCCCOc1ccc(-c2nnn(C3CCc4cc(O)ccc43)n2)cc1 (stereo not drawn)	MET

Check this compound for Half-Life at pH 13.5 at or above 20 sec: CCCCCCCOc1ccc(-c2nnn(C3CCOc4cc(O)ccc43)n2)cc1 (stereo not drawn) NOT MET

Next compound up: CCCCCCCOc1ccc(-c2nnn(C3CCCCc4cc(O)ccc43)n2)cc1 (stereo not drawn) MET

Each recorded value in this set is attributed to patent US5034311A.
